- Target: IL-6R on the surface of TF-1 cells (UniProt P08887)
- Sequence (P08887 20-468 limits assumed): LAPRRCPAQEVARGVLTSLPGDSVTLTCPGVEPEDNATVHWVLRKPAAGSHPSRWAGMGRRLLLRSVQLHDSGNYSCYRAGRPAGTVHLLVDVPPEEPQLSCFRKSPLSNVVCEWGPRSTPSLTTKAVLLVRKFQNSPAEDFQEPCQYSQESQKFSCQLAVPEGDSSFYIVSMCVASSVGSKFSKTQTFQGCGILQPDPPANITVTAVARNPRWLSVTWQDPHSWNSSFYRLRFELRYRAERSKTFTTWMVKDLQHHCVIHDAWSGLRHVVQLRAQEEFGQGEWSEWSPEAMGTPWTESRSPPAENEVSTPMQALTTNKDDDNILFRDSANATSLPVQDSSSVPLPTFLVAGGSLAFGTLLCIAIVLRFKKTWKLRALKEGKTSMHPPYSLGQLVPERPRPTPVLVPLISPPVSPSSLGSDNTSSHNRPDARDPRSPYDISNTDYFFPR
- Assay procedure: cell-based or functional assay
Each record here notes measured log10 of IC50, IL-6-dependent proliferation of TF-1 cells.
Hey, these are logged values: log10 of IC50, IL-6-dependent proliferation of TF-1 cells, nM being the unit before logging.

binder="IL6RPMP103C7 (VHH, family 28) VHH: EVQLVESGGGLVQAGGSLSLSCATSGRTISDDTMAWFRQAPGKEREFVATITFSGARTHYSDSVRDRFTISRDNAKNTVYLQMDSLKSEDTAVYYCAASTKYYSSTYNYIHPAFYDIWGQGTQVTVSS" number=1.79

GET /value?item= IL6RPMP108E1 (VHH, family 20; also called PMP108E01) VHH: EVQLVESGGGLVQAGGSLRLSCAASGFTFDDYDIGWFRQAPGKEREGVSGISSSDGNTYYADSVKGRFTISSDNAKNTVYLQMNSLKPEDTAVYYCAAEPPDSSWYLDGSPEFFKYWGQGTQVTVSS &field=log10 of IC50, IL-6-dependent proliferation of TF-1 cells returns -0.83

GET /value?item= IL6RPMP107A9 (VHH, family 21; also called IL6R107A9) VHH: EVQLVESGGGLVQAGGSLRLSCAASGGIFSDMFMGWFRQAPGKSRESVARISPSGNTFYQDSVRGRFTISTDNAKNTVYLQMNNLKPEDTAVYYCAANVGVTGSYEYWGQGTQVTVSS &field=log10 of IC50, IL-6-dependent proliferation of TF-1 cells returns 2.54

GET /value?item= IL6RPMP100G11 (VHH, family 4; also called IL6R100G11) VHH: EVQLVESGGGLVQAGGSLRLSCAASGRGFSPYTMGWFRQAPGKERVFVAGISWSTGIAHYTDSVKGRFTISRDNAKNTGSLQMNSLKPEDTAVYYCAVVQTTKGNYDYWGQGTQVTVSS &field=log10 of IC50, IL-6-dependent proliferation of TF-1 cells returns 2.06

GET /value?item= IL6RPMP104B8 (VHH, family 3; also called PMP104B08; IL6R104B8) VHH: EVQLVESGGGLVQAGGSLRLSCAASGFAFDDYAIGWFRQAPGKEREGVSSISSSNGNTYYADSVRGRFTISSDNAKNTVYLQMNSLKPEDTGVYYCAAIWGIFFNEKMPVGAYDYWGQGTQVTVSS &field=log10 of IC50, IL-6-dependent proliferation of TF-1 cells returns 2.39

GET /value?item= IL6RPMP103H9 (VHH, family 13; also called PMP103H09; IL6R103H9) VHH: EVQLVESGGGLVQPGGSLRLSCAASKSIFDINAMYWHRQAPGKQRESVASITSGGMRNYADSVKDRFTISKDNAKNTVYLQMNGLKPDDTAVYYCGLGRYEGGVWRDYWGQGTQVTVSS &field=log10 of IC50, IL-6-dependent proliferation of TF-1 cells returns 3.17

GET /value?item= IL6RPMP120G6 (VHH) VHH: EVQLVESGGDLVQTGGSLRLSCAASGITVSDRAMGWYRQAPGKQREMVAGVSRGGMTSYADSVKGRLTISRDNAKNSVYLQMNSLNPEDTAVYYCSAYYRYGSSVPQYWGQGTQVTVSS &field=log10 of IC50, IL-6-dependent proliferation of TF-1 cells returns 1.01

GET /value?item= IL6RPMP105E1 (VHH, family 7; also called PMP105E01; IL6R105E1) VHH: EVQLVESGGGLVQAGGSLRLSCAASGSIFSIKAMGWYRQAPGKQRELVARITSGGSTYYADSVKGRFTISRDNAKNTVYLQMNSLKPEDTAVFYCNAIVTDSDYDLGNDYWGQGTQVTVSS &field=log10 of IC50, IL-6-dependent proliferation of TF-1 cells returns 0.79

GET /value?item= IL6RPMP107A1 (VHH, also called IL6R107A1) VHH: EVQLVESGGGLVQAGGSLNLSCNASGDIGSINAMGWYRQAPGQQREWVAVITDTDSTIYPDSVKGRFAISRDGAKNTVHLRMSSLKPEDTAVYYCNAYQAGWGDYWGQGTQVTVSS &field=log10 of IC50, IL-6-dependent proliferation of TF-1 cells returns 0.61
